The origin of these recorded values is the supplement of paper PMC5908809.

The reader will find reported percent inhibition of viability values listed item by item below.
System: DERL-7 (IL-2 2.5 ng/mL);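 further: normalised to DMSO-only wells as negative and benzethonium chloride as positive control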
method-notes: percent inhibition of viability; higher = more inhibition
details: 72 h; 100 nM
quantity-kind: percent inhibition of viability (%)

[[record]]
compound = "O=C(Cc1ccc(-c2ccc(OCCN3CCOCC3)cc2)cn1)NCc1ccccc1 [KX2-391] (max concentration tested 10000 nM)"
reported_measurement = 99.3

[[record]]
compound = "Nc1ccccc1NC(=O)c1ccc(CNC(=O)OCc2cccnc2)cc1 [Entinostat] (max concentration tested 10000 nM)"
reported_measurement = -7.22

[[record]]
compound = "COc1cc2c(NC3CCN(C(C)C)CC3)nc(N3CCC(F)(F)CC3)nc2cc1OCCCN1CCCC1 [UNC0642] (max concentration tested 10000 nM)"
reported_measurement = -1.94

[[record]]
compound = "Cn1cnc2c(F)c(Nc3ccc(Br)cc3F)c(C(=O)NOCCO)cc21 [Binimetinib] (max concentration tested 1000 nM)"
reported_measurement = 16.3

[[record]]
compound = "Cn1cc(-c2ccc3nnc(C(F)(F)c4ccc5ncccc5c4)n3n2)cn1 (max concentration tested 10000 nM)"
reported_measurement = -5.46

[[record]]
compound = "FC(F)c1nc2ccccc2n1-c1nc(N2CCOCC2)nc(N2CCOCC2)n1 [ZSTK474] (max concentration tested 10000 nM)"
reported_measurement = 36.5

[[record]]
compound = "Oc1ncnc2[nH]ncc12 [Allopurinol] (max concentration tested 10000 nM)"
reported_measurement = 3.34

